target or test system: feline FcRn (FCN-F82W3, Acrobiosystems) (feline)
test method notes: SPR Carterra, IgG coupled, pH 6.0
Attribute: pKd
Convention used: pKd is expressed as -log10 of the molar concentration.

anti-NGF feline IgG1a, Fc variant S434Y, L309E (antibody, part only; not given: Anti-NGF variable domains, not shown: another chain or arm of the molecule; small tags and cut ends) Fc: PPEMLGGPSIFIFPPKPKDTLSISRTPEVTCLVVDLGPDDSDVQITWFVDNTQVYTAKTSPREEQFNSTYRVVSVLPIEHQDWLKGKEFKCKVNSKSLPSPIERTISKAKGQPHEPQVYVLPPAQEELSRNKVSVTCLIKSFHPPDIAVEWEITGQPEPENNYRTTPPQLDSDGTYFVYSKLSVDRSHWQRGNTYTCSVSHEALHYHHTQKSLTQSPGK ... 8.39

IN: Report pKd, nothing else, for this binder: anti-NGF feline IgG1a, Fc variant S428L, I377V (antibody, part only; not given: anti-NGF variable domains, not shown: another chain or arm of the molecule; small tags and cut ends) Fc: PPEMLGGPSIFIFPPKPKDTLSISRTPEVTCLVVDLGPDDSDVQITWFVDNTQVYTAKTSPREEQFNSTYRVVSVLPILHQDWLKGKEFKCKVNSKSLPSPIERTISKAKGQPHEPQVYVLPPAQEELSRNKVSVTCLIKSFHPPDVAVEWEITGQPEPENNYRTTPPQLDSDGTYFVYSKLSVDRSHWQRGNTYTCSVLHEALHSHHTQKSLTQSPGK
OUT: 7.97
